target or system: pooled human IgG (human); also: test concentration or dose not given here
experimental protocol: cell-based or functional assay
assay readout: Enzyme Activity Endpoint Assay (purified): Fab′2 (ng/µL)
Response body: numeric value in ng/µL, unit text excluded.

Please give the measured Enzyme Activity Endpoint Assay (purified): Fab′2 for this binder: PRT-200 (enzyme) MEVVEVWPYGQNPNGKTEILSQTEDSESLQRLRDIEDFQAEKKMQNVVYTKWLDGVDVKDHDFRKIVDGNIAYYATPLLNGRGFYDINKDFNRDSDKCAAAVAANMFHYWLDINRDNVDRFLRQNPEKHGIIELPDGQLKLSDFLNTYESDHGYRDKSKLFDFISNNFNGPVWTDKLLDNYINGYAYNYKYGRTIEDPTKNTSKINFFKEVFNEKILTNNHSIRNQNEFSDLLSEALYTGKAIGLSYGPAGLRHSLGHIISVWGADLDADGNVVAIYVTDSDDKKLTIGDERVGLKRYKISTDDENRARLTAYEETDNTGGQIRGLWTLDTGKQAWADYFDKTEQTGTDQAEQLEHHHHHH
0
